target: Mannose-6-phosphate isomerase (Homo sapiens) (UniProt P34949); experiment: inhibitors of human PMI, primary screen, biochemical, fluorescence intensity, coupled assay (AID 1209); settings: purified PMI enzyme, at 20 µM, hits give high values;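 note: plate controls were DMSO vehicle for no effect and wells lacking substrate for full effect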
Sequence (P34949 whole entry, looked up): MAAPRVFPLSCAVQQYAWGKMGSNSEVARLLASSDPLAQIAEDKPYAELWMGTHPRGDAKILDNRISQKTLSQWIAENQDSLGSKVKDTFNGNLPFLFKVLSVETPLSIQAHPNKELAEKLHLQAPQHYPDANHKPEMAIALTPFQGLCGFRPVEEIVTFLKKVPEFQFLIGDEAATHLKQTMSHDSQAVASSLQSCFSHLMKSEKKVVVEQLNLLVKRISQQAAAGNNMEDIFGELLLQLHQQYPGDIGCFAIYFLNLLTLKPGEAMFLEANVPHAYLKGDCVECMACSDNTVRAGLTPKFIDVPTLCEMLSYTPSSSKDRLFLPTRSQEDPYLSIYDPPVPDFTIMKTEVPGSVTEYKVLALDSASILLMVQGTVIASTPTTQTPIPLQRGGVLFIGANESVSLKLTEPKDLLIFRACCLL
Out of some 190,000 compounds screened, about 810 (0.43%) were called active. Shown is part of a subset that was picked to be rich in actives.
Reported Endpoint: inhibition (%)
Could you give me the number in %? Just the number is fine.

Can you look up the measured inhibition of CN(CCO)c1cc(N2CCCCC2)c2nonc2c1[N+](=O)[O-] for me?
-0.9

Queued: C=C(C)CNC(=S)Nc1cccc2cnccc12
14.2

Moving on to the next molecule: Cc1ccc(S(=O)(=O)Nc2cnc3ccccc3c2)cc1
3.8

Okay, and O=C(C1CCCN(CCCc2ccccc2)C1)N1CCCCCC1 (stereo not drawn) ?
-9.9

Consider next the molecule CC(C)(C=O)C1=CC(=O)c2ccccc2C1=O in the same way.
-17.2
